- study target: Indoleamine 2,3-dioxygenase 1 (Homo sapiens, UniProt P14902)
- Sequence (P14902 whole entry): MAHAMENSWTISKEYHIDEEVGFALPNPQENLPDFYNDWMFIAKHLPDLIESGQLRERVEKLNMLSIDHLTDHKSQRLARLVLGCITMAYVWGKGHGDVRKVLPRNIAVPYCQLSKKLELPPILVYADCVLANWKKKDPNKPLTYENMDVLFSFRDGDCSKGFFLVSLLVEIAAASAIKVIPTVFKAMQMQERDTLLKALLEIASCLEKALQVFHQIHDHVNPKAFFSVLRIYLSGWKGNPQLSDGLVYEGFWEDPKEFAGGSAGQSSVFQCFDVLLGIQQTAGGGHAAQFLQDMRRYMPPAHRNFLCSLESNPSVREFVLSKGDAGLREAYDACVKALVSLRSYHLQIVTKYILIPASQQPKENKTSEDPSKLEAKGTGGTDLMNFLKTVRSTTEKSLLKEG
- method: Inhibition of recombinant human IDO1 expressed in Escherichia coli EC538 using L-tryptophan as substrate after 1 hr
In plain terms, low IC50, meaning strictly below 8 µM, gives 1, and everything else gives 0.

# example entries with known answers
[[record]]
compound = "Nc1nc2ccc([N+](=O)[O-])cc2s1"
discrete_label = 0

[[record]]
compound = "c1ccc2sc(SSc3nc4ccccc4s3)nc2c1 [BENZOTHIAZYL DISULFIDE]"
discrete_label = 0

[[record]]
compound = "NNc1nc2cc(Cl)ccc2s1"
discrete_label = 1

[[record]]
compound = "NNc1ccccc1 [PHENYLHYDRAZINE]"
discrete_label = 1


Is 8 µM strictly greater than the compound's reported IC50? compound: Sc1nc2ccccc2s1 0

Is 8 µM strictly greater than the compound's reported IC50? compound: c1ccc2scnc2c1 [BENZO[D]THIAZOLE] 0

----------
- study target: UniProt:P28776
- Sequence (P28776 whole entry): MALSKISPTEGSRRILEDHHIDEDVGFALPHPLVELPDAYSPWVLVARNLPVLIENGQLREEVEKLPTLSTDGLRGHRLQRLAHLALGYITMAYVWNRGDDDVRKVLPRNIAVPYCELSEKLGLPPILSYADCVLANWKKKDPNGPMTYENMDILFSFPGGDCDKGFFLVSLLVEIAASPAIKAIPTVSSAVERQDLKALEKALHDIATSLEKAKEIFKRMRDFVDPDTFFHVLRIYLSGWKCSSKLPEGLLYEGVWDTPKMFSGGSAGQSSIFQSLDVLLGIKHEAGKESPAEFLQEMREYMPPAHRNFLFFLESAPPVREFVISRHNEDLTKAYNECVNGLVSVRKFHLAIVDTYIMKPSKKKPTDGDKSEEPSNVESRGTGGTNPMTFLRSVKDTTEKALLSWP
- method: Inhibition of mouse IDO1 expressed in mouse LLTC cells using L-tryptophan as substrate after 24 hrs
The reader will find reported pIC50 values listed item by item below.
Remember, pIC50 is on a log scale: it is -log10 of the molar concentration.

[[record]]
compound = "NNc1ccccc1 [PHENYLHYDRAZINE]"
study_target = "UniProt:P28776"
test_value = 6.70


// pIC50 lookup, key: NNc1nc2ccccc2s1 4.30
